Would you kindly list glycan array binding signal (z-score) for each of these binders?
# Target Entity: GalNAc(b1-3)Gal(a1-4)Gal(b1-4)GlcNAc
# Method Notes: glycan array binding signal (z-score within array); higher = stronger binding
# Measurement Setup: glycan notation: IUPAC condensed, linker removed
Only a selection was taken, and the strongest signals are over-represented in it overall.
Answers are plain numbers.

GH95CBM (Clostridium perfringens) (protein) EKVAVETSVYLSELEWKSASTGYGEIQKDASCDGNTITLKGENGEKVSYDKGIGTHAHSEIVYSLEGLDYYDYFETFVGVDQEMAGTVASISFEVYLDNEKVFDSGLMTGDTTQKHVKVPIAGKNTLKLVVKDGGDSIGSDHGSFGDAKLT: 6.95

Moving on to another binder below.
glycan array binding signal (z-score) for EcCDA (Encephalitazoon cuniculi), Q8SU65 (protein) MLLCLLYFTSSWCSGSDVPDVCTNSGMIAINFVDGPVRGVTDRILNTLDELGVKATFSFTVNQKAVGNVGQLYRRAVEEGHNVALRVDPSMDEGYQCLSQDALENNVDREIDTIDGLSGTEIRYAAVPICNGQVNSEMYNILTERGVLPVGYTFCPYDYDDPVGEFESMIEGSDPKHHSFIILMHDGQEADTSRLENMVKIGKDKGYRFVNMDECLQGYKGAPGDPELSLRGKGVESIGKGFLPFFLMMLVRLL ?
1.6
